Provide the reported EC50 of each item.
# Tested on: WEEV California
# Procedure Text: microbe, parasite or virus in culture
# Assay type: cell-based
# Condition Notes: Western equine encephalitis virus, Vero 76, 48 h, read-out: WEEV California EC50 nM

Exercise: Look up and report EC50, with WEEV California as system, for `COc1ccc(-n2c([C@H]3CCCN3)nc3c(Br)cc([N+](=O)[O-])cc3c2=O)cc1`
Key: 1 to 50 nM

Exercise: Write EC50 of `COc1ccc(-n2c([C@@H]3CCCN3)nc3c(C)cc([N+](=O)[O-])cc3c2=O)cc1` ; system used: WEEV California
Key: 51 to 150 nM

Exercise: Print WEEV California EC50 for CNC(C)c1nc2ccc([N+](=O)[O-])cc2c(=O)n1-c1ccc(OC)cc1 (centres unmarked) .
Key: 51 to 150 nM

Exercise: Answer with EC50 of `COc1ccc(-n2c([C@H]3CCCN3)nc3c(-c4ccc(C(F)(F)F)nc4)cc(C#N)cc3c2=O)cc1F` measured for WEEV California.
Key: 1 to 50 nM

Exercise: Report value: EC50, system: WEEV California, compound: `COc1ccc(-n2c([C@@H]3CCCN3)nc3c(C)cc([N+](=O)[O-])cc3c2=O)cc1F`
Key: 51 to 150 nM
